Experiment: Measurement of the compounds' metabolic rate (human liver S9)
Assay type: in vitro ADME
Settings: human liver S9 0.5 mg protein/mL, NADPH generating system, 1 μmol/L test compound, 37° C. for 5 minutes, LC/MS/MS
Experimental Endpoint: Metabolic rate (remaining rate of unchanged substance: %)

Solved cases (5 shown):
| Test Smiles | Recorded Result |
| --- | --- |
| Cc1cccc(-c2noc(NC(=O)Cc3ccccc3Cl)c2-c2ccncn2)c1 | 21.2 |
| O=C(Cc1ccccc1Cl)Nc1onc(-c2ccc(F)cc2F)c1-c1ccncn1 | 20.4 |
| O=C(Cc1c(F)cccc1Cl)Nc1onc(-c2ccc(F)cc2)c1-c1ccncn1 | 16.1 |
| Cc1cccc(CC(=O)Nc2onc(-c3cccc(C)c3)c2-c2ccncn2)c1 | 38.5 |
| COc1ccc(-c2noc(NC(=O)Cc3ccccc3Cl)c2-c2ccncn2)c(F)c1 | 24.1 |

(1) Cc1ccc(F)c(-c2noc(NC(=O)Cc3ccccc3)c2-c2ccncn2)c1
(2) Cc1cccc(-c2noc(NC(=O)Cc3ccccc3C)c2-c2ccncn2)c1
Param metric = Metabolic rate (remaining rate of unchanged substance: %); output whichever of 1 , 2 has the minimum value. Write down the label attached to your selection.
1
